B1: TPR t1 (parent)
chain: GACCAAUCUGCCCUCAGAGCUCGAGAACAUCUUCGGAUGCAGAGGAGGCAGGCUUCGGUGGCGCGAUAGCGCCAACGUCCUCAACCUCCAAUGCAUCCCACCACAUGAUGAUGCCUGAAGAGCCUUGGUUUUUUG

# Variants of: B1
# procedure.text: polymerase ribozyme fitness, log enrichment relative to wild type (log ratio); higher = more active; in vitro selection for triplet polymerase activity
reported.metric: polymerase ribozyme fitness (log ratio)
Answer with the value's number alone.

Below, 3 variants whose answers are already recorded.
variant_identifier="A6C C13U C53U C85U A105U C124A U126G" observed_result=-3.62
variant_identifier="U9A G69C" observed_result=-0.589
variant_identifier="A100C U133G" observed_result=-1.12

Request: Look at this variant and give its reported polymerase ribozyme fitness (log ratio). G17A G93U
Result: -4.76

Request: Look at this variant and give its reported polymerase ribozyme fitness (log ratio). C8G C124G
Result: 1.92
